- System: ATP;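 note: ATP exposure 15 min at 22 °C before imaging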
- protocol text: switch fluorescence ratio, 500 uM ATP over buffer (Cy3 cluster intensity, sum of 5 cycles each) (fold (ratio)); higher = stronger signal-on switching upon ATP binding; sequences stand for … in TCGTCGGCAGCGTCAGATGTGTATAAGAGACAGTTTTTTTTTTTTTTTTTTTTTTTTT…TC
- assay conditions: aptamer strand: ATP DNA aptamer (quencher-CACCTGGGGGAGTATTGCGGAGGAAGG + anchor), 100 nM annealed; ATP concentration: 500 uM
What switch fluorescence ratio was measured for each of the following?
Give bare numbers.

In the examples that follow, each entry is paired with its recorded switch fluorescence ratio.
- residue sequence: "CAAGCTTTCG"
  switch fluorescence ratio: 1.06
- residue sequence: "CGTCTAATAG"
  switch fluorescence ratio: 1.18
- residue sequence: "GGGAGGGGCC"
  switch fluorescence ratio: 1.01

List the reported switch fluorescence ratio of each sequence below.
1. CAGGGATGGA
2. TCCTTTGGAT
3. AGTGGGGTCA
4. ATACGAGGTC
5. TAGGGGGCGG
6. CGATGGTTTT
7. ATTGTTGCTG

stdout:
[0.981, 1.05, 0.989, 1.01, 0.988, 1.01, 0.993]

List the reported switch fluorescence ratio of each sequence below.
1. CGTATAAATC
2. TAGATCTTAC
3. GGTGTTGGGC
4. TGAAGGCTTA
5. CATTTTGAGC
6. GAGTCAGGGT
7. GGTGGAAGAT
8. TTTTACGCCG

stdout:
1.01
1.05
0.998
0.994
0.996
1.02
1
1.09

List the reported switch fluorescence ratio of each sequence below.
1. GAATAACTAG
2. AGAGAGTTTG
3. TACTTGGGAG
4. TCCCCGTCGA

stdout:
0.978
1.01
1.03
1.88

List the reported switch fluorescence ratio of each sequence below.
1. ATTGGGGGGG
2. TTTATTGTAA
3. ACGTAGAAAT
4. AACATTGGGG
5. TGGTTGGAGC
6. AGCCTGTTTT

stdout:
1: 1.02; 2: 0.991; 3: 1.35; 4: 1.02; 5: 0.997; 6: 0.986

List the reported switch fluorescence ratio of each sequence below.
1. TTGTTCATAC
2. GATAGTGAGG
3. CTAAGAGGCG
4. AGGGTGCCGT
5. TTGGGCGTTT

stdout:
1.27
0.993
0.988
0.988
1

List the reported switch fluorescence ratio of each sequence below.
1. AACGGACGCT
2. TTCACTGGGG
3. AAACTCGGAC
4. GAATTTGTCC

stdout:
[1.16, 1.05, 1.14, 0.988]

List the reported switch fluorescence ratio of each sequence below.
1. CAGAGGGGGA
2. AGTACGGTGG
3. ATGGTGGTGG
4. CGGTTGTAGG
5. GATTTTTTTT
6. TCGTAGGGGT

stdout:
1. 1.04
2. 0.985
3. 1.01
4. 0.999
5. 0.989
6. 0.995

* * *

- Tested on: ATP;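 note: ATP exposure 15 min at 22 °C before imaging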
- protocol text: switch fluorescence ratio, 500 uM ATP over buffer (Cy3 cluster intensity, sum of 5 cycles each) (fold (ratio)); higher = stronger signal-on switching upon ATP binding; sequences stand for … in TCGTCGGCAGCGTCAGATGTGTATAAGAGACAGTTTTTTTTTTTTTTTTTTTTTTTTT…TC
- assay conditions: aptamer strand: ATP DNA aptamer (quencher-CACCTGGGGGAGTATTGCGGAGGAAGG + anchor), 100 nM annealed; ATP concentration: 500 uM
recorded metric: switch fluorescence ratio
Answers are plain numbers.

In the examples that follow, each entry is paired with its recorded switch fluorescence ratio.
- residue sequence: "TTAAAAATGC"
  switch fluorescence ratio: 1.02
- residue sequence: "GACTGTTACA"
  switch fluorescence ratio: 1.2
- residue sequence: "TGCTGTAGGG"
  switch fluorescence ratio: 0.966
- residue sequence: "GTACCATCTG"
  switch fluorescence ratio: 0.976
- residue sequence: "TTGTGGTCGC"
  switch fluorescence ratio: 0.97

List the reported switch fluorescence ratio of each sequence below.
1. GGTAAGACGT
2. TCCAGTTTTT
3. GTGGAAGGGT
4. GGTTTGGTTC
5. TTTGCGGTTT
6. GTGTTGTTCG
7. TGGTTAGTGG

stdout:
[0.999, 0.999, 1.02, 0.957, 1.02, 0.995, 1]

List the reported switch fluorescence ratio of each sequence below.
1. ATGGATCTCA
2. CCTATGGTTC
3. GAATTGCTGG
4. TGGGTCATTT

stdout:
1: 1; 2: 1.07; 3: 1.01; 4: 0.99

List the reported switch fluorescence ratio of each sequence below.
1. ATGCGGGGGT
2. CAGGGCTATG
3. TGCAGGGGTC
4. TTGATCAGTG

stdout:
0.993
1.01
1.02
1.01
